measurement protocol: small-molecule microarray binders of probe aDKK1, primary screen, biochemical, biotinylated probe, 635/667 nm fluorescence (AID 1099);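 note: score merges 667nm spot fluorescence with signal to noise across triplicate slides; reference of the scale not given here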
condition notes: higher = more signal
attribute measured: composite z-score
In your answer, state the number alone without any accompanying words.

Solved cases below.
mol	reported result
C=C(COC)/C(=C/C[C@H](OC(=O)c1ccncc1)c1ccc(OCCO)cc1)c1cc(C(=O)OC)ccc1OC	0.17
CCOC(=O)C1=CC[C@@H](c2ccc(F)cc2)N(S(=O)(=O)c2ccc(C)cc2)[C@H]1c1ccc([N+](=O)[O-])cc1	0.0684
COc1ccccc1CN1C(=O)c2ccccc2[C@](Cc2ccccc2I)(C(=O)NCCCN(C)C)[C@@H]1c1ccc(CO)cc1	-0.556

Now for the compound whose composite z-score we want.
Query: Suppose we examine the compound `N[C@@H](Cc1ccccc1)Cn1cc(C2(O)CCCCC2)nn1` ; what composite z-score value has been reported?
Reply: -0.149
